Measured PBM binding z-score, listed per entry for reference.
- Test system: PPARg:RXRa IVT, anti-PPARg (NR concentration 270 nM, RXRa partner concentration 90 nM)
- ASSAY INFO: PBM binding z-score (relative to random genomic background probes); higher = stronger binding; sequences stand for … in GC…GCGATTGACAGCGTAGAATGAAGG
Lab note: jot the number down without any unit.

Solved entries (count: 5):
GTACCAAGGTGACTAGGTCGTTGATGAGTAGGCG = 3.81
CCTAGTTGGTCAATGTCACACACGCTATAGGTAC = 1.6
CCTAGTTGGTCAAGGTCACACGCGCTATAGGTAC = 3.82
TCGAGTAGGTTAGGGGCATTCAGAATGGCGTCGA = 1.44
GATACAGGGTCAGCTAGAAGCCAGAGTATGGAAA = 2.21

input: What reported PBM binding z-score corresponds to "CAAACTAGGTCAAGGTCAAACTCGGTTTGTGCCA" on PPARg:RXRa IVT, anti-PPARg (NR concentration 270 nM, RXRa partner concentration 90 nM)?
output: 8.72

input: What reported PBM binding z-score corresponds to "TAGCGTAGGTCATGGGCCAGTATACCACGCGAAC" on PPARg:RXRa IVT, anti-PPARg (NR concentration 270 nM, RXRa partner concentration 90 nM)?
output: 2.41

input: What reported PBM binding z-score corresponds to "ATATGTAGGTTACGGGTCATTCAGGTTGGTTCGC" on PPARg:RXRa IVT, anti-PPARg (NR concentration 270 nM, RXRa partner concentration 90 nM)?
output: 7.99

input: What reported PBM binding z-score corresponds to "TCTTTTAGATCAAGCAGGTTAAGAAAGCCTGAGT" on PPARg:RXRa IVT, anti-PPARg (NR concentration 270 nM, RXRa partner concentration 90 nM)?
output: 0.619

input: What reported PBM binding z-score corresponds to "TCTAGCAGGCCAGATGGTCACTCAAGAGGTACGG" on PPARg:RXRa IVT, anti-PPARg (NR concentration 270 nM, RXRa partner concentration 90 nM)?
output: -0.0638

input: What reported PBM binding z-score corresponds to "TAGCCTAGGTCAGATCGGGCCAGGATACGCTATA" on PPARg:RXRa IVT, anti-PPARg (NR concentration 270 nM, RXRa partner concentration 90 nM)?
output: 1.22

====

- Test system: RARa:RXR (NR concentration 270 nM, RXRa partner concentration 90 nM)
- ASSAY INFO: PBM binding z-score (relative to random genomic background probes); higher = stronger binding; sequences stand for … in GC…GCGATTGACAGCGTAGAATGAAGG
Assign class by PBM binding z-score: not lower than 3 means Fulfilled; lower than 3 means Not fulfilled.

input: hey, is PBM binding z-score for this one >= 3? "ATACCAAAGTGATCGTGAGGTCGTTGATACTAAC"
output: Not fulfilled

input: hey, is PBM binding z-score for this one >= 3? "TCTCGGAGGACACGAAGGTCAGTGCTTTCCAGAG"
output: Not fulfilled

input: hey, is PBM binding z-score for this one >= 3? "CCGACTGGGGCAAAGGTTAGCATACTCAGTACGA"
output: Not fulfilled

input: hey, is PBM binding z-score for this one >= 3? "CCTACTGGGCCATTCAGAGGTCATAGATCATATG"
output: Fulfilled

input: hey, is PBM binding z-score for this one >= 3? "ATCCCAAGGTGATCGTGAGGTCGTTGATACTAAC"
output: Not fulfilled
